Provenance of the data: patent US20160002331A1

- Subject Of Test: full-length human Notch1 expressed on the cell surface (human, UniProt P46531 19-2555)
- Sequence (P46531 19-2555): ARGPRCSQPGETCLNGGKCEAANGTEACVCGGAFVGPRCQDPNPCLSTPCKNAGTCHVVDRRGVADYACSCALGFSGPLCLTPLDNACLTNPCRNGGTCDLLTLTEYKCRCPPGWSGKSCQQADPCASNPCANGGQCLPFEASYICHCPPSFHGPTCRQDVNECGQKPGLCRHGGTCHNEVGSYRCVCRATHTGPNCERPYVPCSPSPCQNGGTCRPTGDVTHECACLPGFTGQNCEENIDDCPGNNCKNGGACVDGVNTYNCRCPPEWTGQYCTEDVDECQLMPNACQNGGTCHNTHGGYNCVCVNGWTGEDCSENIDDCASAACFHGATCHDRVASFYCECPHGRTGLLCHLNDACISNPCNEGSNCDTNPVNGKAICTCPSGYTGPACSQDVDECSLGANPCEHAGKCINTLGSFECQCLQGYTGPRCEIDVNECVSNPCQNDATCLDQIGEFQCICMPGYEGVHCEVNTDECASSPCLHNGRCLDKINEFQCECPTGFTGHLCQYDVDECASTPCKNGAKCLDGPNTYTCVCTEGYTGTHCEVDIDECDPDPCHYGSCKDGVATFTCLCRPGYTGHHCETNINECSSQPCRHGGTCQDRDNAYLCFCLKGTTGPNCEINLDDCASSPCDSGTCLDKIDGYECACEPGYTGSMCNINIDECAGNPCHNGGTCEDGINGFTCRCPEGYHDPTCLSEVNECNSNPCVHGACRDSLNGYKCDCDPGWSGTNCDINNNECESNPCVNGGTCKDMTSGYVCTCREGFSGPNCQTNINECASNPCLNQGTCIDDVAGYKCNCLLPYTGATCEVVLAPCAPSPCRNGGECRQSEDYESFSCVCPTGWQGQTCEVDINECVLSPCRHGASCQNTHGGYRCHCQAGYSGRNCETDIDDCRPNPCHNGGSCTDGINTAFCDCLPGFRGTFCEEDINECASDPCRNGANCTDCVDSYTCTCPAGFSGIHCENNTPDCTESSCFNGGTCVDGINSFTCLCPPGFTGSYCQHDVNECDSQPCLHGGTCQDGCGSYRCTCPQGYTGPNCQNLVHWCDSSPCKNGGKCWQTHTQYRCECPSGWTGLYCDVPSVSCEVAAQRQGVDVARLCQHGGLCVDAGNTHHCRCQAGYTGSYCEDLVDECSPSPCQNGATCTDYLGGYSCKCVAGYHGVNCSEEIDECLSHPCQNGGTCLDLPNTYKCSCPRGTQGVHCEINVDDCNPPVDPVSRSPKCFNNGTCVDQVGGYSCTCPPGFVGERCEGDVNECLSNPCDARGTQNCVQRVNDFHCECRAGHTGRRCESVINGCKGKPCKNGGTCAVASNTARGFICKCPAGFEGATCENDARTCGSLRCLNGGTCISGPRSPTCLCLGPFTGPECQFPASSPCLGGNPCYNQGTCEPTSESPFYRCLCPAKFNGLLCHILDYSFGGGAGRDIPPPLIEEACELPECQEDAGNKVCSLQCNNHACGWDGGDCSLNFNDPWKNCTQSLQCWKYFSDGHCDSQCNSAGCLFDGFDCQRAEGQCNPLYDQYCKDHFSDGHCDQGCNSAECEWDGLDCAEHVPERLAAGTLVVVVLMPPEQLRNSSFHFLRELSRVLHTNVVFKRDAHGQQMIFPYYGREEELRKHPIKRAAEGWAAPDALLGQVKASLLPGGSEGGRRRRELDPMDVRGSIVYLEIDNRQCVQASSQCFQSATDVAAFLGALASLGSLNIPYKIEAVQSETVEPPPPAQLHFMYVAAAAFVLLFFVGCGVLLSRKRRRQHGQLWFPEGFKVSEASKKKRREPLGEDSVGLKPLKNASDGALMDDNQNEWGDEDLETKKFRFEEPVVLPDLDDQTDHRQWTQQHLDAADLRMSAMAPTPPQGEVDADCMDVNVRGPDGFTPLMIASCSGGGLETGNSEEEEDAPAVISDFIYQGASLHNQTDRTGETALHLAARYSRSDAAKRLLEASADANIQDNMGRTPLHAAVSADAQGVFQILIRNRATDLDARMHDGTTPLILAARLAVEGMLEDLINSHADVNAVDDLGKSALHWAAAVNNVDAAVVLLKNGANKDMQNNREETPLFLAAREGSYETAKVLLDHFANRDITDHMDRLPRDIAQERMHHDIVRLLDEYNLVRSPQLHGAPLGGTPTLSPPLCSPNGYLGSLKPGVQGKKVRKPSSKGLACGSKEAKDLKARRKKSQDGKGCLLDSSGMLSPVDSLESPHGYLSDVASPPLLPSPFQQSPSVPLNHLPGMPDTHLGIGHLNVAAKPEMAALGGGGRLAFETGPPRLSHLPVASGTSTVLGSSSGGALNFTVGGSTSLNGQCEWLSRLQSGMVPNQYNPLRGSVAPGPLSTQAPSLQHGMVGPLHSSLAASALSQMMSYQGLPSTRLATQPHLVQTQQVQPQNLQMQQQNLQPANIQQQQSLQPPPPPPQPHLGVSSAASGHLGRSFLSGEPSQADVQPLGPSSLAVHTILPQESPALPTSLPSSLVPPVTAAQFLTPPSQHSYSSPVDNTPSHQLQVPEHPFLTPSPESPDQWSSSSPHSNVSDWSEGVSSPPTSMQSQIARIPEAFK
- Experiment Summary: cell-based or functional assay
binders and their reported IC50, Notch1 signaling inhibition co-culture reporter assay
Observation Type: IC50, Notch1 signaling inhibition co-culture reporter assay (nM)

[
  {
    "Binder": "rat 351(R58Y)-mIgG1 (antibody, V domains shown) VH: EVQLVESGGGLVQPGRSLKVSCLASGFTFSHYGMNWIRQAPGKGLDWVASISRSGSYIYYVDTVKGRFTVSRDIAKNTLYLQMTSLRSEDTALYYCAREGQFGDYFEYWGQGVMVTVSS VL: DIMLTQSPATLSVTPGERISLSCRASQKISTNLHWYQQKPNESPRILIKYASQTISGIPSRFSGSGSGTDFTLHINTVEPEDFSVYYCQQTNSWPLTFGSGTKLEIK",
    "Measured Number": 0.21
  },
  {
    "Binder": "rat 351(R58Y/V60R)-mIgG1 (antibody, V domains shown) VH: EVQLVESGGGLVQPGRSLKVSCLASGFTFSHYGMNWIRQAPGKGLDWVASISRSGSYIYYRDTVKGRFTVSRDIAKNTLYLQMTSLRSEDTALYYCAREGQFGDYFEYWGQGVMVTVSS VL: DIMLTQSPATLSVTPGERISLSCRASQKISTNLHWYQQKPNESPRILIKYASQTISGIPSRFSGSGSGTDFTLHINTVEPEDFSVYYCQQTNSWPLTFGSGTKLEIK",
    "Measured Number": 0.11
  },
  {
    "Binder": "parental rat 351 (antibody, V domains shown, Rat monoclonal IgG from a hybridoma) VH: EVQLVESGGGLVQPGRSLKVSCLASGFTFSHYGMNWIRQAPGKGLDWVASISRSGSYIRYVDTVKGRFTVSRDIAKNTLYLQMTSLRSEDTALYYCAREGQFGDYFEYWGQGVMVTVSS VL: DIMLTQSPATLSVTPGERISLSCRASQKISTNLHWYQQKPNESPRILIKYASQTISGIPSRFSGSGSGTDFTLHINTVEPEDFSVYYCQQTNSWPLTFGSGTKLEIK",
    "Measured Number": 0.19
  },
  {
    "Binder": "rat 351(R58Y/V60A)-mIgG1 (antibody, V domains shown) VH: EVQLVESGGGLVQPGRSLKVSCLASGFTFSHYGMNWIRQAPGKGLDWVASISRSGSYIYYADTVKGRFTVSRDIAKNTLYLQMTSLRSEDTALYYCAREGQFGDYFEYWGQGVMVTVSS VL: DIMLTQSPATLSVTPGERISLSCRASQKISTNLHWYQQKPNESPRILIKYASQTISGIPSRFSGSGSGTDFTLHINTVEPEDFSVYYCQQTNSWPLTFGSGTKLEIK",
    "Measured Number": 0.16
  }
]
